Data provenance is patent US20240408169A1.

# studyTarget: CyclinB1/CDK1 (Homo sapiens)
# Construct: purchased Eurofins, discovery 14-450
# assayOverview: Fluorescence Polarization (FP) competitive binding assay, Cyclin B1/Cdk1;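 further: fluorescence polarization read after equilibration at room temperature, with IC50 taken from serially diluted dose-response curves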
# testContext: 10 nM Cyclin B1/Cdk1, 2 nM FAM probe; average of 2-3 independent experiments; read-out: Cyclin B FP IC50
*1 amine or outer side, *2 acyl side, *3 side chain or, on linkers, in order; H or OH if unused. Where a SMILES comes first, the peptide text is derived from it. Bridges are numbered along the chain shown (N, C = ends). [ ]: non-standard residue; d: D form. The star is where a group is joined. X127 = CN([C@@H](Cc1cc(F)ccc1-c1cnn(S(=O)(=O)C2CC2)c1)C(=O)[*:2])[*:1]; X134 = CN([C@@H](Cc1cc(Cl)ccc1-c1cnc2[nH]c(O)cc2c1)C(=O)[*:2])[*:1]; X81 = COc1cc(N2CCOCC2)ccc1-c1ccc(Cl)cc1C[C@@H](C(=O)[*:2])N(C)[*:1]; NMehhhLys(Me) = CN([C@@H](CCCCCCCN(C)[*:3])C(=O)[*:2])[*:1]; NMe(hhhLys) = CN([C@@H](CCCCCCCN[*:3])C(=O)[*:2])[*:1]; cBuCO(3,3-F2-1-CF3) = O=C(C1(C(F)(F)F)CC(F)(F)C1)*; Pro(trans-4-F) = O=C(O)[C@@H]1C[C@@H](F)CN1; Gly(cPr) = N[C@H](C(=O)O)C1CC1
readout: IC50 (µM)
One number for each entry, in µM.

Worked cases, IC50 given:
- compound: "CC(C)C[C@@H]1NC(=O)[C@@H](N(C)C(=O)[C@@H](NC(=O)[C@@H]2C[C@@H](F)CN2C(=O)C2(C(F)(F)F)CC(F)(F)C2)C2CC2)CCCCCCCNC(=O)[C@H](Cc2cc(F)ccc2-c2cnn(S(=O)(=O)C3CC3)c2)N(C)C1=O [Example 281] ({cBuCO(3,3-F2-1-CF3)}-[Pro(trans-4-F)][Gly(cPr)][NMe(hhhLys)]L[X127]; lactam 3-C)"
  studyTarget: "CyclinB1/CDK1 (Homo sapiens)"
  scaleUnit: "µM"
  IC50: 0.02
- compound: "COc1cc(N2CCOCC2)ccc1-c1ccc(Cl)cc1C[C@H]1C(=O)N(C)CCCCCCC[C@H](N(C)C(=O)[C@@H](NC(=O)[C@@H]2C[C@@H](F)CN2C(=O)C2(C(F)(F)F)CC(F)(F)C2)C2CC2)C(=O)N[C@@H](CC(C)C)C(=O)N1C [Example 361] ({cBuCO(3,3-F2-1-CF3)}-[Pro(trans-4-F)][Gly(cPr)][NMehhhLys(Me)]L[X81]; lactam 3-C)"
  studyTarget: "CyclinB1/CDK1 (Homo sapiens)"
  scaleUnit: "µM"
  IC50: 0.02

Please report the measured IC50 for CC(C)C[C@@H]1NC(=O)[C@@H](N(C)C(=O)[C@@H](NC(=O)[C@@H]2C[C@@H](F)CN2C(=O)C2(C(F)(F)F)CC(F)(F)C2)C2CC2)CCCCCCCN(C)C(=O)[C@H](Cc2cc(Cl)ccc2-c2cnc3[nH]c(O)cc3c2)N(C)C1=O [Example 272] ({cBuCO(3,3-F2-1-CF3)}-[Pro(trans-4-F)][Gly(cPr)][NMehhhLys(Me)]L[X134]; lactam 3-C)
0.02
